Origin of measurements: patent US9340521B2

The compounds listed here are annotated with their pIC50.
# system-name: Human SGLT2 (hSGLT2) (Homo sapiens (Human), UniProt P31639)
# Sequence (P31639 whole entry): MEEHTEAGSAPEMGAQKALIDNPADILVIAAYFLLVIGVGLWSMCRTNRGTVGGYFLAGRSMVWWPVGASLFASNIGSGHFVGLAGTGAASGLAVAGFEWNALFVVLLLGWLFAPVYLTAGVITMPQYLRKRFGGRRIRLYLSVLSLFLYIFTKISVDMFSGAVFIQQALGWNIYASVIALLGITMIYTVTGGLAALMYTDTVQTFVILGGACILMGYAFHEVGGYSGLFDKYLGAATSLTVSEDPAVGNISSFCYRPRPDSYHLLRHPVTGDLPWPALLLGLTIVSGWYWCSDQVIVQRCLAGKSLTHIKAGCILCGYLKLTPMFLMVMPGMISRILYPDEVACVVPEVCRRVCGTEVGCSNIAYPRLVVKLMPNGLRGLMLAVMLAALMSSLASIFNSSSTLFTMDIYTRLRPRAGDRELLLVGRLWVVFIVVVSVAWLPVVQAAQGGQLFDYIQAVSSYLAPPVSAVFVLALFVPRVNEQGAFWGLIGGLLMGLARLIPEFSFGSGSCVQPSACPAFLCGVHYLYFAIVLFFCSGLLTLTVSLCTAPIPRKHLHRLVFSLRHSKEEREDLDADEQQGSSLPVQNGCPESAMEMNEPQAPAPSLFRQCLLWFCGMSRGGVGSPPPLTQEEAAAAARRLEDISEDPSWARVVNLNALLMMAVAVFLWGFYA
# protocol: Inhibitory effects on human SGLT2 activities (14C-AMG uptake, sodium-dependent glucose transport assay)
# measurement-context: hSGLT2-expressing CHO cells, 37° C. for 2 h, single determinations
// pIC50: -log10(molar conc.)

COc1ccc(Cc2cc([C@@H]3O[C@H](CO)[C@@H](O)[C@H](O)[C@H]3O)c3c(c2Cl)SCCC3)cc1    9.26

Entry CCc1ccc(Cc2cc([C@@H]3O[C@H](CO)[C@@H](O)[C@H](O)[C@H]3O)c3c(c2Br)CCCC3)cc1 has what pIC50? 9.07

Quick check: pIC50 of CCc1ccc(Cc2cc([C@@H]3O[C@H](CO)[C@@H](O)[C@H](O)[C@H]3O)c3c(c2Cl)CCC3)cc1 ? 9.20

Would you kindly share the measured pIC50 for COc1ccc(Cc2cc([C@@H]3O[C@H](CO)[C@@H](O)[C@H](O)[C@H]3O)c3c(c2Cl)OCO3)cc1 ? 8.92

Please report the recorded pIC50 for OC[C@H]1O[C@@H](c2cc(Cc3ccc(C4CC4)cc3)c(Cl)c3c2OCO3)[C@H](O)[C@@H](O)[C@@H]1O . 9.43

pIC50 for OC[C@H]1O[C@@H](c2cc(Cc3ccc(C4CC4)cc3)c(Cl)c3c2OCC3)[C@H](O)[C@@H](O)[C@@H]1O ? 8.96

Fill blank: measured pIC50 of the compound CCOc1ccc(Cc2cc([C@@H]3O[C@H](SC)[C@@H](O)[C@H](O)[C@H]3O)c3c(c2Cl)OCCO3)cc1 is ____. 9.15

# input compound: Cc1ccc(Cc2cc3c(c([C@@H]4O[C@H](CO)[C@@H](O)[C@H](O)[C@H]4O)c2)CCC3)cc1 ; wanted: its pIC50 8.10

* * *

# system-name: UniProt:P13866
# protocol: Inhibitory effects on human SGLT1 activities (14C-AMG uptake, sodium-dependent glucose transport assay)
# measurement-context: 37° C. for 2 h, single determinations
Listed below: pIC50 values for each entry.
In textbook form, pIC50 equals minus log to base ten of the concentration in mol/L.

Consider the worked cases shown below.
CCOc1ccc(Cc2cc([C@@H]3O[C@H](CO)[C@@H](O)[C@H](O)[C@H]3O)c3c(c2Br)CCCC3)cc1 [Compound E058]    7.77
CCc1ccc(Cc2cc([C@@H]3O[C@H](CO)[C@@H](O)[C@H](O)[C@H]3O)c3c(c2Cl)SCC3)cc1 [Compound E035]    7.28
CCc1ccc(Cc2cc([C@@H]3O[C@H](CO)[C@@H](O)[C@H](O)[C@H]3O)c3c(c2Cl)OCO3)cc1 [Compound E026]    7.06
CCc1ccc(Cc2cc([C@@H]3O[C@H](CO)[C@@H](O)[C@H](O)[C@H]3O)c3c(c2Cl)CCO3)cc1 [Compound E008]    7.36
CCc1ccc(Cc2cc([C@@H]3O[C@H](CO)[C@@H](O)[C@H](O)[C@H]3O)c3c(c2Cl)OCCC3)cc1 [Compound E014]    7.21
OC[C@H]1O[C@@H](c2cc(Cc3ccc(C4CC4)cc3)c(Cl)c3c2OCCC3)[C@H](O)[C@@H](O)[C@@H]1O [Compound E018]    7.58

What measured pIC50 is associated with CCOc1ccc(Cc2cc([C@@H]3O[C@H](CO)[C@@H](O)[C@H](O)[C@H]3O)c3c(c2Br)CCC3)cc1 [Compound E002] on UniProt:P13866? 7.20

* * *

The entries below are paired with their reported IC50.
# system-name: Human SGLT2 (hSGLT2) (Homo sapiens (Human))
# protocol: Inhibitory effects on human SGLT2 activities (14C-AMG uptake, sodium-dependent glucose transport assay)
# Format: cell-based
# measurement-context: hSGLT2-expressing CHO cells, 37° C. for 2 h, single determinations
Respond with the bare value in nM.

In the examples that follow, each entry is paired with its recorded IC50.
Cc1ccc(Cc2cc([C@@H]3O[C@H](CO)[C@@H](O)[C@H](O)[C@H]3O)c3c(c2Cl)CCCO3)cc1 [Compound E052]    1.1
COc1ccc(Cc2cc([C@@H]3O[C@H](CO)[C@@H](O)[C@H](O)[C@H]3O)c3c(c2C)CCCC3)cc1 [Compound E037]    0.86

Look at this molecule and give its reported IC50. OC[C@H]1O[C@@H](c2cc(Cc3cc4ccccc4s3)c(Cl)c3c2OCCO3)[C@H](O)[C@@H](O)[C@@H]1O [Compound E056] 2.2

Could you share which IC50 value was measured for CCc1ccc(Cc2cc([C@@H]3O[C@H](CO)[C@@H](O)[C@H](O)[C@H]3O)c3c(c2Cl)SCC3)cc1 [Compound E035] ? 0.87

* * *

# system-name: Human SGLT2 (hSGLT2) (Homo sapiens (Human))
# protocol: Inhibitory effects on human SGLT2 activities (14C-AMG uptake, sodium-dependent glucose transport assay)
# measurement-context: hSGLT2-expressing CHO cells, 37° C. for 2 h, single determinations
Param label: returns class 1 when IC50 < 0.9 nM, returns class 0 otherwise, including exact equality.

Sample answers from the record:
CCOc1ccc(Cc2cc([C@@H]3O[C@H](CO)[C@@H](O)[C@H](O)[C@H]3O)c3c(c2Cl)C(C)CO3)cc1 (stereo partly drawn) [Compound E031]    class 0
CCOc1ccc(Cc2cc([C@@H]3O[C@H](CO)[C@@H](O)[C@H](O)[C@H]3O)c3c(c2Cl)CCCC3)cc1 [Compound E039]    class 1
OC[C@H]1O[C@@H](c2cc(Cc3ccc(-c4ccc(F)cc4)s3)c(Cl)c3c2OCCO3)[C@H](O)[C@@H](O)[C@@H]1O [Compound E054]    class 0
CCOc1ccc(Cc2cc([C@@H]3O[C@H](CO)[C@@H](O)[C@H](O)[C@H]3O)c3c(c2Cl)CCO3)cc1 [Compound E013]    class 1
CCc1ccc(Cc2cc([C@@H]3O[C@H](CO)[C@@H](O)[C@H](O)[C@H]3O)c3c(c2Cl)CCCO3)cc1 [Compound E011]    class 1

Now let's try a different one.
Criterion: IC50 strictly below 0.9 nM. Is it met by CCOc1ccc(Cc2cc([C@@H]3O[C@H](CO)[C@@H](O)[C@H](O)[C@H]3O)c3c(c2Br)CCCC3)cc1 [Compound E058] ? class 1

* * *

Collected pIC50 values appear next to each entry.
# system-name: Human SGLT1 (hSGLT1) (Homo sapiens (Human), UniProt P13866)
# Sequence (P13866 whole entry): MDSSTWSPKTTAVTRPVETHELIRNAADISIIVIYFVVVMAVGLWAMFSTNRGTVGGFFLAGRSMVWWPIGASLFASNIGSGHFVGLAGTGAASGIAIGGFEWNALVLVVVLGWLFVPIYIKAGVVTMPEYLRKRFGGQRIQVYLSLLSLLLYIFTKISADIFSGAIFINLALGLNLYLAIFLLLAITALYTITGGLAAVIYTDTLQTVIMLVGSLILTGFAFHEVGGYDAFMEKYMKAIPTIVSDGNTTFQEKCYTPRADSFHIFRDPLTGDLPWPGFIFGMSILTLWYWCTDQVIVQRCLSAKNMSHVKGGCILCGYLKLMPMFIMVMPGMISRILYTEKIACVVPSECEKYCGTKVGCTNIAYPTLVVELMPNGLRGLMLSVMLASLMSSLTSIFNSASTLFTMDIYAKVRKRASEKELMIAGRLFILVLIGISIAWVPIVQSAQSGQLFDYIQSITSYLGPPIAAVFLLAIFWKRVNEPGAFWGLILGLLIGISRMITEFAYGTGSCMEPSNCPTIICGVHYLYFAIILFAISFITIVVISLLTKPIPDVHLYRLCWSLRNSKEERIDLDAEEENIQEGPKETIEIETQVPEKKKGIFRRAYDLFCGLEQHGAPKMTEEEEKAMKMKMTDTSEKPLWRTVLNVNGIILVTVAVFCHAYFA
# protocol: Inhibitory effects on human SGLT1 activities (14C-AMG uptake, sodium-dependent glucose transport assay)
# measurement-context: 37° C. for 2 h, single determinations
A value of pIC50 is the negative decimal logarithm of a concentration given in moles per litre.

// solved cases for pIC50 follow
OC[C@H]1O[C@@H](c2cc(Cc3ccc(C4CC4)cc3)c(Cl)c3c2OCC3)[C@H](O)[C@@H](O)[C@@H]1O    7.28
OC[C@H]1O[C@@H](c2cc(Cc3cc4ccccc4s3)c(Cl)c3c2OCO3)[C@H](O)[C@@H](O)[C@@H]1O    7.39
COc1ccc(Cc2cc([C@@H]3O[C@H](CO)[C@@H](O)[C@H](O)[C@H]3O)c3c(c2Br)CCC3)cc1    7.82

// pIC50 lookup, key: COc1ccc(Cc2cc([C@@H]3O[C@H](CO)[C@@H](O)[C@H](O)[C@H]3O)c3c(c2Cl)OCCC3)cc1 7.11

* * *

# system-name: Human SGLT2 (hSGLT2) (Homo sapiens (Human), UniProt P31639)
# protocol: Inhibitory effects on human SGLT2 activities (14C-AMG uptake, sodium-dependent glucose transport assay)
# measurement-context: hSGLT2-expressing CHO cells, 37° C. for 2 h, single determinations
IC50 overview
Write the answer as a number in nM, unit excluded.

Look over these answered cases.
CCOc1ccc(Cc2cc([C@@H]3O[C@H](CO)[C@@H](O)[C@H](O)[C@H]3O)c3c(c2Cl)CCCO3)cc1 [Compound E009]    1.6
CCc1ccc(Cc2cc([C@@H]3O[C@H](CO)[C@@H](O)[C@H](O)[C@H]3O)c3c(c2C)OCO3)cc1 [Compound E064]    1.1
CCOc1ccc(Cc2cc([C@@H]3O[C@H](SC)[C@@H](O)[C@H](O)[C@H]3O)c3c(c2Cl)OCO3)cc1 [Compound E051]    0.49

Here is the next item to consider.
Record request: IC50 value, item CCc1ccc(Cc2cc([C@@H]3O[C@H](CO)[C@@H](O)[C@H](O)[C@H]3O)c3c(c2Cl)CCO3)cc1 [Compound E008] 0.88

* * *

# system-name: Human SGLT2 (hSGLT2) (Homo sapiens (Human))
# protocol: Inhibitory effects on human SGLT2 activities (14C-AMG uptake, sodium-dependent glucose transport assay)
# measurement-context: hSGLT2-expressing CHO cells, 37° C. for 2 h, single determinations
experimental-readout: IC50 (pM)
Report the value in pM with no unit label.

As a guide, the following entries are already answered.
COc1ccc(Cc2cc([C@@H]3O[C@H](CO)[C@@H](O)[C@H](O)[C@H]3O)c3c(c2C(F)F)CCC3)cc1    730
CCOc1ccc(Cc2cc([C@@H]3O[C@H](CO)[C@@H](O)[C@H](O)[C@H]3O)c3c(c2Br)CCC3)cc1    750

// moving on: another record for IC50
Endpoint output: IC50 of OC[C@H]1O[C@@H](c2cc(Cc3ccc(C4CC4)cc3)c(Cl)c3c2CCCO3)[C@H](O)[C@@H](O)[C@@H]1O . Value? 880
